# TARGET SYSTEM: Recombinant human His-tagged Kat6a protein (amino acids 194-810) (Homo sapiens)
# Construct: Kat6a protein (amino acids 194-810); His
# ASSAY SUMMARY: Kat6a activity assay (TR-FRET, acetylation of Histone-H4-derived peptide)
# CONDITION: 60 mins at 22° C., 220 nM H4 peptide, 600 nM Acetyl Coenzyme A, read-out: KAT6A - DPF/HAT domain IC50 [mol/l] (arithmetic mean)
MEASURED ENDPOINT: IC50 (nM)

> print(dat)
                                   molecule  measured.number
1  Cc1ccc(S(=O)(=O)NC(=O)c2cc3c(F)cc(N4CCC4)cc3o2)c(OC(F)F)c1 [Example 35]             42.1
2  Cc1nc(-c2ccc(S(=O)(=O)NC(=O)c3cc4c(F)cc(N5CC(F)C5)cc4o3)cc2)cs1 [Example 115]              563
3  CCC(=O)Nc1cccc2c(S(=O)(=O)NC(=O)c3cc4c(F)cc(N5CCC5)cc4o3)cccc12 [Example 89]              269

P = Cc1cccc(O)c1S(=O)(=O)NC(=O)c1cc2c(F)cc(N3CCC3)cc2o1 [Example 64]
Q = CCOc1cccc(OC)c1S(=O)(=O)NC(=O)c1cc2c(F)cc(N3CCC3)cc2o1 [Example 1]
[ask] Between P and Q , whose recorded IC50 is greater? Give the label of your selection.
[reply] P

I = O=C(NS(=O)(=O)c1ccccc1S(=O)(=O)c1ccccc1)c1cc2c(F)cc(N3CCC3)cc2o1 [Example 45]
II = Cc1ccc(OC(C)C)c(S(=O)(=O)NC(=O)c2cc3c(F)cc(N4CCC4)cc3o2)c1 [Example 134]
[ask] Two entries are listed, I and II . Which one carries the higher IC50? Kindly give the label for the entry you pick.
[reply] I

---

# TARGET SYSTEM: Recombinant human His-tagged Kat6a protein (amino acids 194-810) (Homo sapiens, UniProt Q92794)
# Construct: Kat6a protein (amino acids 194-810); His
# Sequence (Q92794 194-810): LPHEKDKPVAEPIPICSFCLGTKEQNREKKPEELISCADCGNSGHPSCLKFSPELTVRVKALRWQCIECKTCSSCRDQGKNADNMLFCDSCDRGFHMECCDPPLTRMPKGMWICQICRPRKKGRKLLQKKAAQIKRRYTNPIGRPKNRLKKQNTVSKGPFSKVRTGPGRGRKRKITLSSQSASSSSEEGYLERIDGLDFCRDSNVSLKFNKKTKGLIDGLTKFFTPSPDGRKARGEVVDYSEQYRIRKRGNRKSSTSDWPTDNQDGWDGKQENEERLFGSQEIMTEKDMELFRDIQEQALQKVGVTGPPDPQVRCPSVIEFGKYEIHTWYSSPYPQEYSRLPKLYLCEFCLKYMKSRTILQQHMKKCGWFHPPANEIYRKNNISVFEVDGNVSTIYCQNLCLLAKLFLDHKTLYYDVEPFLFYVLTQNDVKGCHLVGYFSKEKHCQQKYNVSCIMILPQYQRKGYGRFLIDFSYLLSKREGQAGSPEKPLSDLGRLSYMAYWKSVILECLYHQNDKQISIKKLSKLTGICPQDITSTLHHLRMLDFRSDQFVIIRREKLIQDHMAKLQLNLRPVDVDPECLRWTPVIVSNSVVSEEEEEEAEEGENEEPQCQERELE
# ASSAY SUMMARY: Kat6a activity assay (TR-FRET, acetylation of Histone-H4-derived peptide)
# CONDITION: 60 mins at 22° C., 220 nM H4 peptide, 600 nM Acetyl Coenzyme A, read-out: KAT6A - DPF/HAT domain IC50 [mol/l] (arithmetic mean)
pIC50: −log10 of the molar value.
MEASURED ENDPOINT: pIC50

Please review the following examples before continuing.
> print(dat)
                                   compound  measured.number
1  CC(C)(C)c1ccc(OC2CC2)c(S(=O)(=O)NC(=O)c2cc3c(F)cc(N4CCC4)cc3o2)c1             8.43
2  CN(C)c1ccccc1S(=O)(=O)NC(=O)c1cc2c(F)cc(N3CCC3)cc2o1             7.12
3  O=C(NS(=O)(=O)c1cccc2c1CCCC2)c1cc2c(F)cc(N3CC(F)C3)cc2o1             7.16
4  CCOc1cc(F)ccc1S(=O)(=O)NC(=O)c1cc2c(F)cc(N3CCC3)cc2o1             7.34

A = CCOc1ccc(Br)cc1S(=O)(=O)NC(=O)c1cc2c(F)cc(N3CCC3)cc2o1
B = CC(C)Oc1ccccc1S(=O)(=O)NC(=O)c1cc2c(F)cc(N3CCC3)cc2o1
C = CCOc1ccc(Oc2ccccc2)cc1S(=O)(=O)NC(=O)c1cc2c(F)cc(N3CCC3)cc2o1
D = CCOc1ccc(C(C)CC)cc1S(=O)(=O)NC(=O)c1cc2c(F)cc(N3CCC3)cc2o1 (racemic)
E = Cc1nc(N)c(S(=O)(=O)NC(=O)c2cc3c(F)cc(N4CCC4)cc3o2)c(C)c1Cl
[ask] I would appreciate it if you could sort these 5 compounds by pIC50, starting from the smallest number. Please write the labels in the order that was asked for.
[reply] E, B, A, C, D

A = COc1cc(C)ccc1S(=O)(=O)NC(=O)c1cc2c(F)cc(N3CC(F)C3)cc2o1
B = O=C(NS(=O)(=O)c1ccccc1/C=C/C(F)(F)F)c1cc2c(F)cc(N3CCC3)cc2o1
[ask] Between the two listed entries A and B , which has its pIC50 at the higher number? Respond using the label that marks the chosen record.
[reply] A
(A: 7.59, B: 6.97)

a = Cc1ccc(OC(C)C)c(S(=O)(=O)NC(=O)c2cc3c(F)cc(N4CC(F)C4)cc3o2)c1
b = COc1cc(C)ccc1S(=O)(=O)NC(=O)c1cc2c(F)cc(N3CCC3)cc2o1
[ask] # returns the entry with the larger pIC50; inputs a and b Choose, then provide that item's label.
[reply] b

1 = CCOc1ccc(CC)cc1S(=O)(=O)NC(=O)c1cc2c(F)cc(N3CC(F)C3)cc2o1
2 = COC(=O)/C=C/c1ccccc1S(=O)(=O)NC(=O)c1cc2c(F)cc(N3CCC3)cc2o1
[ask] Parameter metric = pIC50. Return the lower-valued option from 1 and 2 . Indicate which entry you chose by stating its label.
[reply] 2
